Biological target: T1, Glutaminase Interacting Protein (GIP), recombinant (UniProt O14907 1-124)
T1 sequence (looked up): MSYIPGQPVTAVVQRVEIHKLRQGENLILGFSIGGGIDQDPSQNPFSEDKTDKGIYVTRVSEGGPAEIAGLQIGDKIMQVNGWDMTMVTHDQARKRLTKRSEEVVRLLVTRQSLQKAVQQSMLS
Test: NMR titration
No end group written: not given here.
endpoint-label: Kd
Remember to put the unit after the number in your answer.

Request: # lookup: Kd of RDGDFQTEV-OH [BAI2 C-terminal peptide (RDGDFQTEV-COOH)]
Result: 97.8 µM
